Where these numbers come from: paper PMC10470491

Tested on: HIV-1 intasome (vDNA•IN•LEDGF/p75)
TEST_SUMMARY: in vitro HIV-1 concerted integration onto mononucleosome
Format: biochemical
RUN_CONDITIONS: Table 4, title: in vitro HIV-1 integration inhibition; read-out: Integration IC50
RESULT_TYPE: IC50

Query: Consider the molecule shown here: "O=S(=O)(O)c1cc2c(O)c(c1)Cc1cc(S(=O)(=O)O)cc(c1O)Cc1cc(S(=O)(=O)O)cc(c1O)Cc1cc(S(=O)(=O)O)cc(c1O)C2" What is its recorded IC50?
Reply: > 1000 nM
